B1: NP_116010.1 (parent)
chain: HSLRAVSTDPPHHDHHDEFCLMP

variants of: B1; experiment: protein stability index of a GFP-peptide fusion (GPS, HEK-293T) (PSI 1-6); higher = more stable; details: c terminus: native;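 further: lentivirally expressed fusion library, cells FACS-sorted into six equal-sized GFP/DsRed ratio bins, PSI computed from sequencing read fractions per bin weighted by bin number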
Consider the following variants; for each one, report its protein stability index.
Number only, please.

Q: Please report the recorded protein stability index for HSLRAVSTDAPHHDHHDEFCLMP [P10A] .
Ans: 2.38

Q: Another variant to check: HSLRAVSTDPPHHDHHDEFCLMW [P23W]
Ans: 2.97

Q: Now the same for HSLRAVSTDPPHHDHHDEFCMMP [L21M]
Ans: 2.39

Q: Entry HSLRAVSTDPPHHDHHDEFWLMP [C20W] please
Ans: 3.48

Q: Next entry: HSLRAVSTDSPHHDHHDEFCLMP [P10S]
Ans: 2.03

Q: Now consider HSLRAVSRDPPHHDHHDEFCLMP [T8R] and answer again.
Ans: 2.33

Q: Check HSLRAVSTDPPHHDHQDEFCLMP [H16Q] too.
Ans: 2.77

Q: What do you get for HSLRAVSTDPPHHDHHDEFCLMT [P23T] ?
Ans: 3.02

Q: Also need HSLRAVSTDPPHHDCHDEFCLMP [H15C] , thanks.
Ans: 2.52

Q: What would you report for HSLRAVSTDPPHHDHHDEFCWMP [L21W] ?
Ans: 2.9

Q: Okay, and HSLRAVSTDPPWHDHHDEFCLMP [H12W] ?
Ans: 2.27
